The values you see were collected from ChEMBL document CHEMBL3124891.

- measured_on: Coagulation factor X (Oryctolagus cuniculus)
- Sequence (O19045 41-180 limits assumed): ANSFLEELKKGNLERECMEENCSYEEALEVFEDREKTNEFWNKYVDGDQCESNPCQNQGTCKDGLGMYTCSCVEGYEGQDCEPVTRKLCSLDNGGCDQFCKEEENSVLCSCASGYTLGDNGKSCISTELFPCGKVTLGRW
- Sequence (O19045 233-490 limits assumed): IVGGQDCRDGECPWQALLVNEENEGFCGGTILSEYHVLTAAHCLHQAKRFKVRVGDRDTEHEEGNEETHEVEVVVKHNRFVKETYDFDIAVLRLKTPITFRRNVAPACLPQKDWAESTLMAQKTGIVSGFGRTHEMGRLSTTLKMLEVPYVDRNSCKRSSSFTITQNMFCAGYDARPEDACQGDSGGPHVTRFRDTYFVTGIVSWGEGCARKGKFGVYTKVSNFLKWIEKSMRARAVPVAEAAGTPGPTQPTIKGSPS
reported_endpoint: pKi
Give bare numbers, as −log10 of the molar value.

### Prompt Notebook entry, Coagulation factor X (Oryctolagus cuniculus) assay: pKi of CC(C)CC(=O)Nc1cc(-c2ccc(C(N)=O)cc2C(=O)O)cc(C2CC(C)(c3ccccc3)c3cc(C(=N)N)ccc3N2)c1 (single isomer, unassigned; enantiomer 2) = ?
### Response 5.49

###

- measured_on: Coagulation factor VII (Homo sapiens, UniProt P08709)
- Sequence (P08709 61-212 limits assumed): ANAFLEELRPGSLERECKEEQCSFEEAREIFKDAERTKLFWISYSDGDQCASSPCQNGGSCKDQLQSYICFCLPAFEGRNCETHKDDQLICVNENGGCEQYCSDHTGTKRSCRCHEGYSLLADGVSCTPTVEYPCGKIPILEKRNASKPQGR
- Sequence (P08709 213-466 limits assumed): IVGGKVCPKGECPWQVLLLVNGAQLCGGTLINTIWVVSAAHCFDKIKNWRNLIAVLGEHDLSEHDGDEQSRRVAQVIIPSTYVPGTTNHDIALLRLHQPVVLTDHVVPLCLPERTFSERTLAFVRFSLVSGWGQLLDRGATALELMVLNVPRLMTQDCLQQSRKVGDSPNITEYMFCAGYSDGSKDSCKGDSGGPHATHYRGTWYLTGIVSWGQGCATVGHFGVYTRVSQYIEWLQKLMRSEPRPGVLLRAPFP
reported_endpoint: pKi
Give bare numbers, as −log10 of the molar value.

INSERT INTO measurements (compound, numeric_value) VALUES
  ('CCC(=O)Nc1cc(-c2ccc(C(N)=O)cc2C(=O)O)cc([C@@H]2C[C@](C)(c3ccccc3)c3cc(C(=N)N)ccc3N2)c1 (racemic)', 6.35);

Next, consider the following compound.
### Prompt Bench note: what pKi did C[C@]1(c2ccccc2)C[C@H](c2cccc(-c3ccc(C(N)=O)cc3C(=O)O)c2)Nc2ccc(C(=N)N)cc21 (racemic) show?
### Response 4.79
